Tested on: NCI-H522
assay.protocol: Growth inhibition of human NCI-H522 cells by sulforhodamine B assay
Type: functional
experimental.parameters: read-out: GI50
endpoint.label: GI50 (µM)

| compound | observed.value |
| --- | --- |
| CC(C)=CC(=O)O[C@@H]1CC(C)(C)C[C@H]2C3=CC[C@@H]4[C@@]5(C)CCC(=O)C(C)(C)[C@@H]5CC[C@@]4(C)[C@]3(C)CC[C@@]12C(=O)O | 3.14 |
| CC(C)=CC(=O)O[C@@H]1CC(C)(C)C[C@H]2C3=CC[C@@H]4[C@@]5(C)CC[C@H](O)C(C)(C)[C@@H]5CC[C@@]4(C)[C@]3(C)CC[C@@]12C(=O)O [Reduced Lantadene B] | 4.22 |
| CC1(C)C[C@@H](O)[C@]2(C(=O)O)CC[C@]3(C)C(=CC[C@@H]4[C@@]5(C)C/C(=C\C=C\c6ccccc6)C(=O)C(C)(C)[C@@H]5CC[C@]43C)[C@@H]2C1 | 2.46 |
| C/C=C(/C)C(=O)O[C@@H]1CC(C)(C)C[C@H]2C3=CC[C@@H]4[C@@]5(C)CC[C@H](O)C(C)(C)[C@@H]5CC[C@@]4(C)[C@]3(C)CC[C@@]12C(=O)O [Reduced Lantadene A] | 2.18 |
| C/C=C(/C)C(=O)O[C@@H]1CC(C)(C)C[C@H]2C3=CC[C@@H]4[C@@]5(C)CCC(=O)C(C)(C)[C@@H]5CC[C@@]4(C)[C@]3(C)CC[C@@]12C(=O)O [LANTADENE A] | 3.25 |
